The origin of these recorded values is patent US10294230B2.

Target: human NR1/NR2B (Homo sapiens (Human), UniProt Q05586+Q13224)
Sequence (Q13224 27-1484, other chains not shown): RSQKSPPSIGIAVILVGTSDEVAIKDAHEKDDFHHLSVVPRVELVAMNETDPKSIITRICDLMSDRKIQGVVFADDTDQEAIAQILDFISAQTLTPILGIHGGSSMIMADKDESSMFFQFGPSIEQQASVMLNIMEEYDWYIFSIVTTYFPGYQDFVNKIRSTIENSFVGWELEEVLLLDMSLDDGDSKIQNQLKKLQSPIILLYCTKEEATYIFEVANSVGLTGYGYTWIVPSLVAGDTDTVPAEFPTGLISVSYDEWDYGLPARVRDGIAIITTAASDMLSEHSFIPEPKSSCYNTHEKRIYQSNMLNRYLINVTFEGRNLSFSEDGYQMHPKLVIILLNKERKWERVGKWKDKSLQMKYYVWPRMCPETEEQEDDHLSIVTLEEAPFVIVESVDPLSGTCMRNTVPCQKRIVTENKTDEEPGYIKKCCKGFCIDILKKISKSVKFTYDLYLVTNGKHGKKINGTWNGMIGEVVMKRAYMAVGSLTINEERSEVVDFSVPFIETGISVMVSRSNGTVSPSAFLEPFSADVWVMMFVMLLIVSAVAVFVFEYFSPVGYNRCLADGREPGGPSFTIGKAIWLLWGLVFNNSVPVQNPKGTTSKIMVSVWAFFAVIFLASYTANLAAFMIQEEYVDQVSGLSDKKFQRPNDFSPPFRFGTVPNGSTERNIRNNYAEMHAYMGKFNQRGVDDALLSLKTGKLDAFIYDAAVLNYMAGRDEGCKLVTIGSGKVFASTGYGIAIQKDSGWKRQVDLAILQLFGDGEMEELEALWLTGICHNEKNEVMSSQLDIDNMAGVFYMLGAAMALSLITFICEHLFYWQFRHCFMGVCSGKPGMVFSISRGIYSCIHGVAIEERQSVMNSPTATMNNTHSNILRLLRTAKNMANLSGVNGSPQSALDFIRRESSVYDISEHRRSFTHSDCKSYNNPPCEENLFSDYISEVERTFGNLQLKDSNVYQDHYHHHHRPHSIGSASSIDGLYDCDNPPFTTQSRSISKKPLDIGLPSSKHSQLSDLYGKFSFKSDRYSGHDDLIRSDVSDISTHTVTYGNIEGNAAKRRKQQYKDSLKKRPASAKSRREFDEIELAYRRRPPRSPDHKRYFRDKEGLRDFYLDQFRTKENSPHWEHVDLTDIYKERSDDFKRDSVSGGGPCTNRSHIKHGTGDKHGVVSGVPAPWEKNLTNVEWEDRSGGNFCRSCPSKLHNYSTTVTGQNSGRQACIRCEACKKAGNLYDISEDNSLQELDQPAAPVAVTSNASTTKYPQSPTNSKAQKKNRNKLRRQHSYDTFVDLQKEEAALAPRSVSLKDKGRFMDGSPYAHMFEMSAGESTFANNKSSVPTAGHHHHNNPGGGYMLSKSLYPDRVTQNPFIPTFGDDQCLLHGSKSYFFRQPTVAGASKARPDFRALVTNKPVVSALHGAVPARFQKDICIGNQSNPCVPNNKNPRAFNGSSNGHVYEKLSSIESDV
Run description: NR2B antagonist activity, Fluo-4 calcium influx in HEK293 cells
Assay type: cell-based
Applied conditions: Table 2.3
Assay metric: pIC50
# pIC50 = -log10(concentration in molar units)

Below, 4 compounds whose answers are already recorded.
O=C(OCc1ccc(F)cc1)N1CC[C@H](CNc2nccn3cnnc23)C(F)(F)C1 [Compound E1-1.4] | 7.69
Cc1ccc(COC(=O)N2CC[C@H](CNc3cnc(C)cn3)C(F)(F)C2)cc1 [Compound E1-21.26] | 7.41
Cc1ccc(COC(=O)N2CC[C@H](CNc3ncc4cn[nH]c4n3)C(F)(F)C2)cc1 [Compound E1-8.2] | 7.77
Cc1ccc(COC(=O)N2CC[C@H](CNc3cncc4nncn34)C(F)(F)C2)cc1 [Compound E1-2.2] | 7.98

So what's the measured pIC50 for this one? Cc1ccc(COC(=O)N2CC[C@H](CNc3cnccn3)C(F)(F)C2)cc1 [Compound E1-21.2]
7.84

# repeat for Cc1ccc(COC(=O)N2CC[C@@H](CNc3nccn4cnnc34)C(F)(F)C2)cc1 [Compound E2-1.2]
6.81

How about this compound: O=C(OCc1ccc(Cl)cc1)N1CC[C@H](CNc2nccn3cnnc23)C(F)(F)C1 [Compound E1-1.3]
7.83

Same question for Cc1ccc(COC(=O)N2CC[C@H](CNc3nc4ccccn4n3)C(F)(F)C2)cc1 [Compound E1-9.2] please.
7.32

Also check Cc1ccc(COC(=O)N2CC[C@H](CNc3nccn4cnnc34)C(F)(F)C2)cc1 [Compound E1-1.2]
7.68
